src = ChEMBL document CHEMBL4177616

# measurement_protocol: Toxicity in wild type zebrafish embryos assessed as dead embryo at 1000 ug/ml treated for 96 hrs post fertilization starting from 6 hrs post fertilization by inverted microscopic analysis relative to control
# Format: organism-based, Danio rerio
# settings: in vivo, read-out: Activity
measure_name: mortality at 1000 ug/ml (%)
Respond with the bare value in %.

Form field: reported mortality at 1000 ug/ml of O=c1cc(CO)occ1O
0

----------
# measurement_protocol: in vivo
# settings: zebrafish
# Description: Toxicity in wild type zebrafish embryos assessed as dead embryo at 12.5 ug/ml treated for 96 hrs post fertilization starting from 6 hrs post fertilization by inverted microscopic analysis relative to control
measure_name: mortality at 12.5 ug/ml (%)
Give the value, in units of %, as a plain number.

Recorded mortality at 12.5 ug/ml of Oc1ccc(O)cc1 [HYDROQUINONE] , please.
66.7

----------
# Test system: Neutrophil
# measurement_protocol: Cytotoxicity against mpx:GFP transgenic zebrafish 24 hrs post fertilization embryo neutrophils assessed as loss in neutrophil at 25 ug/ml relative to control
# Type: cell-based, Danio rerio

# compound, Activity
records = [
    ("O=c1cc(-c2ccccc2)c2ccc(O)cc2o1", "Non-Toxic"),
    ("O=c1cc(CO)occ1O [KOJIC ACID]", "Non-Toxic"),
    ("Oc1ccc(O)cc1 [HYDROQUINONE]", "30%"),
    ("O=c1cc(-c2ccccc2)c2c(O)cc(O)cc2o1", "Non-Toxic"),
]

----------
# measurement_protocol: Toxicity in wild type zebrafish embryos assessed as dead embryo at 10 ug/ml treated for 96 hrs post fertilization starting from 6 hrs post fertilization by inverted microscopic analysis relative to control
# Type: organism-based, Danio rerio
# settings: in vivo, read-out: Activity
Exercise: for every item that follows, state its recorded mortality at 10 ug/ml.
Numbers only; they are read as %.

# input molecule: O=c1cc(-c2ccccc2)c2ccc(O)cc2o1 ; wanted: its mortality at 10 ug/ml
0

What value of mortality at 10 ug/ml has been reported for the following molecule? Oc1ccc(O)cc1 [HYDROQUINONE]
63.3

Look up mortality at 10 ug/ml: O=c1cc(-c2ccccc2)c2c(O)cc(O)cc2o1
0

----------
# Organism: Danio rerio
# measurement_protocol: Toxicity in wild type zebrafish embryos assessed as heart beat at 25 ug/ml treated for 96 hrs post fertilization starting from 6 hrs post fertilization by inverted microscopic analysis relative to control
# Assay type: organism-based
# settings: in vivo
measure_name: Activity

Return reported Activity; argument: Oc1ccc(O)cc1 [HYDROQUINONE]
100%

Fill blank: measured Activity of the compound O=c1cc(-c2ccccc2)c2c(O)cc(O)cc2o1 is ____.
0%

Look at this compound and give its reported Activity. O=c1cc(-c2ccccc2)c2ccc(O)cc2o1
0%

What value of Activity has been recorded for this entry: O=c1cc(CO)occ1O
0%

----------
# study_target: Tyrosinase (Danio rerio)
# Sequence (A0A8M1PAD4 whole entry): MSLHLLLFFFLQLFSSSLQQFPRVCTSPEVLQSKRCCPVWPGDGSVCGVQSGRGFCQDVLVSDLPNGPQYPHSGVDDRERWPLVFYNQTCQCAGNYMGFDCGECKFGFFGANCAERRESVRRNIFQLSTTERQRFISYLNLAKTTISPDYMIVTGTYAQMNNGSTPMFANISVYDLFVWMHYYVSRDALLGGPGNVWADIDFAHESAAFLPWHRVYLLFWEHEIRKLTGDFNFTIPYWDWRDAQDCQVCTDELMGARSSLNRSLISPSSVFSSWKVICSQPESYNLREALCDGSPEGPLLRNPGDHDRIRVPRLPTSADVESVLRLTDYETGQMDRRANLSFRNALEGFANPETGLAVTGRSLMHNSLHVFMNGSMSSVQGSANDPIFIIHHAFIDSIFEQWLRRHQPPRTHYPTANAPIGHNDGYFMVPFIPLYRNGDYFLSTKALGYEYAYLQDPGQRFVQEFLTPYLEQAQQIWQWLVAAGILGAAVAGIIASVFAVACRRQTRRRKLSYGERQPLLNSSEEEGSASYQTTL
# measurement_protocol: Inhibition of zebrafish embryo tyrosinase assessed as melanin production after 48 hrs
I'd be grateful if you could share measured IC50 for these entries.
Numbers only; they are read as µM.

Data request, read-out IC50, for O=c1cc(-c2ccccc2)c2c(O)cc(O)cc2o1
41.3

Entry O=c1cc(-c2ccccc2)c2ccc(O)cc2o1 : reported IC50 = ?
103

----------
Task for the reader: assign each of the following molecules its reported Activity.
# Species on record: Danio rerio
# measurement_protocol: Toxicity in wild type zebrafish embryos assessed as eyes at 25 ug/ml treated for 96 hrs post fertilization starting from 6 hrs post fertilization by inverted microscopic analysis relative to control
# Format: organism-based
# settings: in vivo
Reply numerically in %, unit not repeated.

Look at this molecule and give its reported Activity. Oc1ccc(O)cc1 [HYDROQUINONE]
100

Look up Activity: O=c1cc(-c2ccccc2)c2ccc(O)cc2o1
0

State the recorded Activity for this entry: O=c1cc(CO)occ1O [KOJIC ACID]
0

Which measured Activity value corresponds to O=c1cc(-c2ccccc2)c2c(O)cc(O)cc2o1 ?
0

----------
# measurement_protocol: Toxicity in wild type zebrafish embryos assessed as dead embryo at 5 ug/ml treated for 96 hrs post fertilization starting from 6 hrs post fertilization by inverted microscopic analysis relative to control
# Assay type: organism-based, Danio rerio
# settings: in vivo, read-out: Activity
measure_name: mortality at 5 ug/ml (%)
Reply numerically in %, unit not repeated.

Could you tell me which mortality at 5 ug/ml is on file for Oc1ccc(O)cc1 [HYDROQUINONE] ?
0

// lookup mortality at 5 ug/ml for O=c1cc(-c2ccccc2)c2ccc(O)cc2o1
0

Reported mortality at 5 ug/ml, compound O=c1cc(-c2ccccc2)c2c(O)cc(O)cc2o1 : ____
0

----------
# measurement_protocol: Toxicity in wild type zebrafish embryos assessed as dead embryo at 2500 ug/ml treated for 96 hrs post fertilization starting from 6 hrs post fertilization by inverted microscopic analysis relative to control
# Type: organism-based, Danio rerio
# settings: in vivo, read-out: Activity
measure_name: mortality at 2500 ug/ml (%)
The answer is to be given in %; state only the numeric part.

Look up mortality at 2500 ug/ml for this compound: O=c1cc(CO)occ1O
0
